# key: entry, value: EC50
Study system: Muscarinic acetylcholine receptor (Cavia porcellus, UniProt Q8VH26)
Sequence (Q8VH26 whole entry): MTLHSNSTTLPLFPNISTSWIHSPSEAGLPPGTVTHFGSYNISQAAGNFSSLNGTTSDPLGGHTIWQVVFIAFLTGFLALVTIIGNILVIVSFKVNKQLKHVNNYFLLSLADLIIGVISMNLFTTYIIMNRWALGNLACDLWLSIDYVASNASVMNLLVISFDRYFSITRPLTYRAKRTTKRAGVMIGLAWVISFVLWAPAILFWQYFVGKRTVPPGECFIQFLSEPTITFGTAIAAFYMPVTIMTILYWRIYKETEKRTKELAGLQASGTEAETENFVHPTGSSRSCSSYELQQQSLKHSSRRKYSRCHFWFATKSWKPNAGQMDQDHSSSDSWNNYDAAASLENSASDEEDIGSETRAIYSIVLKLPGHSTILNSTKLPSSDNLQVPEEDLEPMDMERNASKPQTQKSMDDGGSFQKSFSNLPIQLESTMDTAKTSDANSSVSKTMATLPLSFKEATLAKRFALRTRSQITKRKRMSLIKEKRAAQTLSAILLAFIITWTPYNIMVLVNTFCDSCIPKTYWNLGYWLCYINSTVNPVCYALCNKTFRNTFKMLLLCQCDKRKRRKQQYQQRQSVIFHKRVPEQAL
Assay method text: Muscarinic acetylcholine receptor M3 agonistic/antagonistic activity in guinea pig ileum
Assay metric: EC50

INSERT INTO measurements (compound, assay_value) VALUES
  ('CC(C#CCN1CCCC1)N(C)C(N)=O (stereo not drawn)', '< 1 nM'),
  ('CC(C#CCN1CCCC1)N1CCNC1=O (stereo not drawn)', '< 1 nM'),
  ('CC(C#CCN1CCCC1)N1CCCC1=O (stereo not drawn)', '< 1 nM');

Cited source for all entries: BindingDB's records for doi:10.1021/jm00095a025
